Reference for the values: patent US4070484A

assay_info: Acute Toxicity (LD50) in mice
Type: in vivo
measurement_setup: mouse, in vivo, po, mortality on the 8th day
Method: The median lethal dose (LD50) of the new aromatic carboxylic acid amide derivatives of this invention were determined in dd-stain male and female mice (6 weeks old) by oral administration and in Wistar strain male and female rats (7 weeks old) by oral and intraperitoneal administration. […] The LD50 values were calculated from the mortality on the 8th day by the Litchfield-Wilcoxon's method.
Rule: measured LD50 at 192 h below 600 mg/kg gets true; anything equal to or greater than 600 mg/kg gets false.

Reference set (2 entries):
compound="O=C(C=Cc1ccccc1F)Nc1ccccc1C(=O)O [compound 30, N-(2'-fluorocinnamoyl)-anthranilic acid]" assigned_class=true
compound="COc1ccc(C=CC(=O)Nc2ccccc2C(=O)O)cc1OC [Compound No. 33]" assigned_class=false

Query: is_below(LD50 at 192 h, 600 mg/kg) for O=C(C=Cc1cccc(F)c1)Nc1ccccc1C(=O)O [compound 29, N-(3'-fluorocinnamoyl)-anthranilic acid] ?
Result: true

Query: What about this compound? O=C(C=Cc1cccc(Cl)c1)Nc1ccccc1C(=O)O [N-(3'-chlorocinnamoyl)-anthranilic acid]
Result: false

Query: What about this compound? O=C(C=Cc1ccc(Cl)cc1)Nc1ccccc1C(=O)O [compound 20, N-(4'-chlorocinnamoyl)-anthranilic acid]
Result: true

Query: What about this compound? O=C(C=Cc1ccccc1Cl)Nc1ccccc1C(=O)O [compound 22, N-(2'-chlorocinnamoyl)-anthranilic acid]
Result: true

Query: What about this compound? O=C(C=Cc1ccc(F)cc1)Nc1ccccc1C(=O)O [compound 28, N-(4'-fluorocinnamoyl)-anthranilic acid]
Result: true
